# System: Hepatitis C virus
# test: Antiviral activity against HCV genotype 1b Con1 harboring HCV genotype 1a H77 NS3 D168A mutant infected in human HuH7 cells assessed as inhibition of viral replication after 96 hrs by luciferase reporter gene assay
# Type: functional, cell-based, Hepacivirus hominis
# condition: genotype 1b Con1, Huh-7, 96 h
Measured pEC50 accompanies every entry in the list below.
A value of pEC50 is the negative decimal logarithm of a concentration given in moles per litre.

record.smiles: CCc1nc2ccc(OC)cc2nc1O[C@@H]1C[C@H]2C(=O)N[C@]3(C(=O)NS(=O)(=O)C4CC4)C[C@H]3/C=C\CCCCC[C@H](NC(=O)OC(C)(C)C)C(=O)N2C1
pEC50: 8.20

record.smiles: COc1ccc2nc(C(F)(F)F)c(O[C@@H]3C[C@H]4C(=O)N[C@]5(C(=O)NS(=O)(=O)C6CC6)C[C@H]5/C=C\CCCCC[C@H](NC(=O)OC5CCCC5)C(=O)N4C3)nc2c1
pEC50: 7.82

record.smiles: COc1ccc2nc(C(C)C)c(O[C@@H]3C[C@H]4C(=O)N[C@]5(C(=O)NS(=O)(=O)C6CC6)C[C@H]5/C=C\CCCCC[C@H](NC(=O)OC(C)(C)C)C(=O)N4C3)nc2c1
pEC50: 7.82

Reported pEC50, compound `CCc1nc2ccc(OC)cc2nc1O[C@@H]1C[C@H]2C(=O)N[C@]3(C(=O)NS(=O)(=O)C4(C)CC4)C[C@H]3/C=C\CCCCC[C@H](NC(=O)OC3CCCC3)C(=O)N2C1` : ____
8.46

Can you handle `COc1ccc2nc(C(C)C)c(O[C@@H]3C[C@H]4C(=O)N[C@]5(C(=O)NS(=O)(=O)C6(C)CC6)C[C@H]5/C=C\CCCCC[C@H](NC(=O)OC(C)(C)C)C(=O)N4C3)nc2c1` next?
7.92
